System: NCI-H1734;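 further: growth inhibition of human NCI-H1734 cells, read out with a cell viability assay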
Assay: cells
Assay type: functional, cell-based
Settings: Homo sapiens
Description: SANGER: Inhibition of human NCI-H1734 cell growth in a cell viability assay.
ASSAY_ENDPOINT: pIC50
Just so you know, pIC50 here is -log10 of the concentration in molar units; reply with that number alone.

Need pIC50 of `CO[C@@]12[C@H](COC(N)=O)C3=C(C(=O)C(C)=C(N)C3=O)N1C[C@@H]1N[C@@H]12` , thanks.
6.86

====

System: D283 Med
Assay: cells
Type: functional, cell-based
Conditions: Homo sapiens
Description: SANGER: Inhibition of human D-283MED cell growth in a cell viability assay.
# IC50 per entry

Solved entries:
CCNc1cc(N[C@H]2CC[C@@H](O)CC2)nc(Nc2ccc3c(ccn3Cc3ccccc3)c2)n1 > 5.12 µM
Cc1n[nH]c2ccc(-c3cncc(OC[C@@H](N)Cc4c[nH]c5ccccc45)c3)cc12 > 1.02 µM
N#C/C(=C1/Nc2ccccc2S1)c1ccnc(NCCc2cccnc2)n1 > 8 µM
CC(C)=CC[C@@H](O)C1=CC(=O)c2c(O)ccc(O)c2C1=O 0.835 µM
Cn1c(=O)n(-c2ccc(C(C)(C)C#N)cc2)c2c3cc(-c4cnc5ccccc5c4)ccc3ncc21 0.0496 µM

In the following, a different molecule is considered.
Need IC50 of `CCCS(=O)(=O)Nc1ccc(F)c(C(=O)c2c[nH]c3ncc(Cl)cc23)c1F` , thanks.
> 10 µM

====

Test system: D-336MG
Assay: cells
Format: functional, cell-based
Conditions: Homo sapiens
Description: SANGER: Inhibition of human D-336MG cell growth in a cell viability assay.
# IC50 per entry

Solved entries:
COMPOUND	IC50
CCNc1cc(N[C@H]2CC[C@@H](O)CC2)nc(Nc2ccc3c(ccn3Cc3ccccc3)c2)n1	> 5120 nM
CCn1c(-c2nonc2N)nc2cnc(Oc3cccc(NC(=O)c4ccc(OCCN5CCOCC5)cc4)c3)cc21 [GSK-269962A]	629 nM
Cc1ccc(NC(=O)c2cccc(C(C)(C)C#N)c2)cc1Nc1ccc2ncn(C)c(=O)c2c1	> 4000 nM

Need IC50 of `Cn1cc(/C=C2\C(=O)Nc3cccnc32)c2ccccc21` , thanks.
> 2000 nM

====

Tested on: HCC1937;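 further: growth inhibition measured with a cell viability read-out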
Test: cells
Assay type: functional, cell-based
Details: Homo sapiens
Description: SANGER: Inhibition of human HCC1937 cell growth in a cell viability assay.
ASSAY_ENDPOINT: IC50

Solved entries:
COMPOUND	IC50
Fc1cc(-c2cc[nH]/c(=N/c3ccc(-n4cnc(N5CCOCC5)n4)cc3)n2)cc(N2CCOCC2)c1	1.23 µM
COc1cc(Nc2c(C#N)cnc3cc(OCCCN4CCN(C)CC4)c(OC)cc23)c(Cl)cc1Cl [BOSUTINIB]	> 2 µM
CC[C@]1(O)C[C@@H]2CN(CCc3c([nH]c4ccccc34)[C@@](C(=O)OC)(c3cc4c(cc3OC)N(C)[C@H]3[C@@](O)(C(=O)OC)[C@H](OC(C)=O)[C@]5(CC)C=CCN6CC[C@]43[C@@H]65)C2)C1 [VINBLASTINE]	> 0.1 µM
NC(=O)c1ncn([C@@H]2O[C@H](COP(=O)(O)O)[C@@H](O)[C@H]2O)c1N	> 2000 µM

Need IC50 of CCCS(=O)(=O)Nc1ccc(F)c(C(=O)c2c[nH]c3ncc(Cl)cc23)c1F [PLX-4720] , thanks.
> 10 µM

====

# IC50 per entry
System: Huh-7
Assay: cells
Assay type: functional, cell-based
Conditions: Homo sapiens
Description: SANGER: Inhibition of human HuH-7 cell growth in a cell viability assay.

Solved entries:
MOLECULE	TGT	IC50
CO[C@@]12[C@H](COC(N)=O)C3=C(C(=O)C(C)=C(N)C3=O)N1C[C@@H]1N[C@@H]12	Huh-7	3.22 µM
NC(=O)c1ncn([C@@H]2O[C@H](COP(=O)(O)O)[C@@H](O)[C@H]2O)c1N	Huh-7	> 2000 µM
CC(=O)c1c(C)c2cnc(Nc3ccc(N4CCNCC4)cn3)nc2n(C2CCCC2)c1=O	Huh-7	> 4 µM
O=C(CCCCCCC(=O)Nc1ccccc1)NO	Huh-7	2.31 µM
CC(O)(CS(=O)(=O)c1ccc(F)cc1)C(=O)Nc1ccc(C#N)c(C(F)(F)F)c1 (centres undefined) [BICALUTAMIDE]	Huh-7	> 1.02 µM

Need IC50 of `C[C@]1(c2nc3c(C(N)=O)cccc3[nH]2)CCCN1` , thanks.
> 5 µM

Need IC50 of `N#C/C(=C1/Nc2ccccc2S1)c1ccnc(NCCc2cccnc2)n1` , thanks.
> 8 µM

Need IC50 of `O=c1[nH]c2ccccc2n1C1CCN(Cc2ccc(-c3nc4cc5[nH]cnc5cc4nc3-c3ccccc3)cc2)CC1` , thanks.
> 2.56 µM

Need IC50 of `Fc1cc(-c2cc[nH]/c(=N/c3ccc(-n4cnc(N5CCOCC5)n4)cc3)n2)cc(N2CCOCC2)c1` , thanks.
0.756 µM

====

Tested on: SNU-16;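 further: growth inhibition of human SNU-16 cells, determined with a cell viability readout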
Test: cells
Type: functional, cell-based
Conditions: Homo sapiens
Description: SANGER: Inhibition of human NCI-SNU-16 cell growth in a cell viability assay.
pIC50: −log10 of the molar value.
# pIC50 per entry

N#C/C(=C1/Nc2ccccc2S1)c1ccnc(NCCc2cccnc2)n1 < 5.10

In the following, a different molecule is considered.
Give SNU-16 pIC50 for `Cc1ccc(NC(=O)c2cccc(C(C)(C)C#N)c2)cc1Nc1ccc2ncn(C)c(=O)c2c1`
< 5.40

====

Test system: WM-115
Assay: cells
Format: functional, cell-based
Conditions: Homo sapiens
Description: SANGER: Inhibition of human WM-115 cell growth in a cell viability assay.
pIC50: −log10 of the molar value.
ASSAY_ENDPOINT: pIC50

Cn1cc(/C=C2\C(=O)Nc3cccnc32)c2ccccc21 < 5.70
C[C@]1(c2nc3c(C(N)=O)cccc3[nH]2)CCCN1 < 5.30
COc1cc(Nc2c(C#N)cnc3cc(OCCCN4CCN(C)CC4)c(OC)cc23)c(Cl)cc1Cl < 5.70
C[C@]12O[C@H](C[C@]1(O)CO)n1c3ccccc3c3c4c(c5c6ccccc6n2c5c31)CNC4=O < 5.70
CCNC(=O)c1noc(-c2cc(C(C)C)c(O)cc2O)c1-c1ccc(CN2CCOCC2)cc1 < 6.59
O=c1cc(N2CCOCC2)oc2c(-c3cccc4c3sc3ccccc34)cccc12 < 5.70

Give WM-115 pIC50 for `CCCS(=O)(=O)Nc1ccc(F)c(C(=O)c2c[nH]c3ncc(Cl)cc23)c1F`
6.05

Give WM-115 pIC50 for `C/C(O)=C(\C#N)C(=O)Nc1cc(Br)ccc1Br`
< 4.80

====

Tested on: MDA-MB-453
Test: cells
Type: functional, cell-based
Details: Homo sapiens
Description: SANGER: Inhibition of human MDA-MB-453 cell growth in a cell viability assay.
# pIC50 per entry
Just so you know, pIC50 here is -log10 of the concentration in molar units; reply with that number alone.

Solved entries:
CC(C)=CC[C@@H](O)C1=CC(=O)c2c(O)ccc(O)c2C1=O 5.60
CC[C@]1(O)C[C@@H]2CN(CCc3c([nH]c4ccccc34)[C@@](C(=O)OC)(c3cc4c(cc3OC)N(C)[C@H]3[C@@](O)(C(=O)OC)[C@H](OC(C)=O)[C@]5(CC)C=CCN6CC[C@]43[C@@H]65)C2)C1 8.48

In the following, a different compound is considered.
Need pIC50 of `O=C(CCCCCCC(=O)Nc1ccccc1)NO` , thanks.
5.65

====

# IC50 per entry
System: CPC-N;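 further: growth inhibition of CPC-N cells, with a cell viability assay as the readout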
Assay: cells
Type: functional, cell-based
Conditions: Homo sapiens
Description: SANGER: Inhibition of human CPC-N cell growth in a cell viability assay.
All answers are understood in µM, so give the number only.

Give CPC-N IC50 for `Fc1cc(-c2cc[nH]/c(=N/c3ccc(-n4cnc(N5CCOCC5)n4)cc3)n2)cc(N2CCOCC2)c1`
4.22

Give CPC-N IC50 for `Cc1n[nH]c2ccc(-c3cncc(OC[C@@H](N)Cc4c[nH]c5ccccc45)c3)cc12`
0.304

====

Test system: EW-7
Experiment: SANGER: Inhibition of human EW-7 cell growth in a cell viability assay.
Format: functional, cell-based
ASSAY_ENDPOINT: IC50

Need IC50 of `O=c1[nH]c2ccccc2n1C1CCN(Cc2ccc(-c3nc4cc5[nH]cnc5cc4nc3-c3ccccc3)cc2)CC1` , thanks.
> 2560 nM

Need IC50 of CC(O)(CS(=O)(=O)c1ccc(F)cc1)C(=O)Nc1ccc(C#N)c(C(F)(F)F)c1 (stereo not drawn) [BICALUTAMIDE] , thanks.
> 1020 nM

Need IC50 of `CC(C)=CC[C@@H](O)C1=CC(=O)c2c(O)ccc(O)c2C1=O` , thanks.
1290 nM

====

System: A-375
Assay: cells
Assay type: functional, cell-based
Conditions: Homo sapiens
Description: SANGER: Inhibition of human A375 cell growth in a cell viability assay.
ASSAY_ENDPOINT: pIC50
Just so you know, pIC50 here is -log10 of the concentration in molar units; reply with that number alone.

Solved entries:
MOLECULE	pIC50
C[C@]12O[C@H](C[C@]1(O)CO)n1c3ccccc3c3c4c(c5c6ccccc6n2c5c31)CNC4=O [LESTAURTINIB]	6.48
CC[C@]1(O)C[C@@H]2CN(CCc3c([nH]c4ccccc34)[C@@](C(=O)OC)(c3cc4c(cc3OC)N(C)[C@H]3[C@@](O)(C(=O)OC)[C@H](OC(C)=O)[C@]5(CC)C=CCN6CC[C@]43[C@@H]65)C2)C1 [VINBLASTINE]	7.63

In the following, a different molecule is considered.
Need pIC50 of COc1cc(Nc2c(C#N)cnc3cc(OCCCN4CCN(C)CC4)c(OC)cc23)c(Cl)cc1Cl [BOSUTINIB] , thanks.
5.82
